assay.notes: inhibitors of hydroxyurea-induced Chk1 phosphorylation, primary screen, imaging, HeLa, phospho-Chk1 nuclear intensity (AID 1187); also: test concentration not given here
assay.setup: hydroxyurea-induced phospho-Chk1 immunofluorescence imaging, higher = more signal
measurement.type: z-score
Respond using a number only.

As a guide, the following entries are already answered.
CC(C)(C)OC(=O)CC[C@@]12N=C(c3ccc(OCCCO)cc3)O[C@@H]1c1ccccc1CN(Cc1ccccc1)C2=O = 0.0228
C#CCOc1ccc(C[C@H]2C(=O)O[C@H](Cc3ccccc3)[C@H](/C=C/C3CC3)N2CC#C)cc1 = -0.582
C=CCC1(CC=C)C[C@H]2CO[C@H](c3ccc(OC)cc3)N2C1=O = 0.989
[N-]=[N+]=NCc1ccccc1C[C@@]1(C(=O)O)N=C(c2ccc(OCCCO)cc2)O[C@@H]1c1ccccc1 = 0.429
C=C(COC)/C(=C/C[C@H](OC(C)=O)c1ccc(CO)o1)c1cnc2ccccc2c1 = -0.669

Request: Look at this compound and give its reported z-score. CC(=O)OC(C/C=C\B1OC(C)(C)C(C)(C)O1)c1ccccc1 (centres undefined)
Response: -1.16

Request: Same for CC(C)C(CO)N1C(=O)[C@@H]2[C@H]3C(=O)OCC=C[C@H]3OC23C=CCN(Cc2ccccc2)C(=O)[C@@H]13 (some centres undefined)
Response: -0.647

Request: Same for "C=CC[C@@H](OC(=O)Nc1ccc(SC)cc1)c1ccc(OCCO)cc1"
Response: 0.593

Request: Same for "O=C(N1CCCCC1)[C@@]1(Cc2ccccc2)N=C(c2ccc(OCCCO)cc2)O[C@H]1c1ccccc1"
Response: -1.55
